biological target: T1, Recombinant cynomolgus transferrin receptor 1 (TfR1), His6-tagged, a.a. 89-760 (cynomolgus, UniProt H9EXL1 89-760 (rhesus entry)); assay: SPR, TfR1 on chip; Table 2, geomean of n = 2
T1 construct: range 89-760; Bought, ACRO Biosystems TFR-C524a; also called Cyno TfR1; Cynomolgus TfR1; not shown: His6 tag
T1 sequence (chain, as listed by the source): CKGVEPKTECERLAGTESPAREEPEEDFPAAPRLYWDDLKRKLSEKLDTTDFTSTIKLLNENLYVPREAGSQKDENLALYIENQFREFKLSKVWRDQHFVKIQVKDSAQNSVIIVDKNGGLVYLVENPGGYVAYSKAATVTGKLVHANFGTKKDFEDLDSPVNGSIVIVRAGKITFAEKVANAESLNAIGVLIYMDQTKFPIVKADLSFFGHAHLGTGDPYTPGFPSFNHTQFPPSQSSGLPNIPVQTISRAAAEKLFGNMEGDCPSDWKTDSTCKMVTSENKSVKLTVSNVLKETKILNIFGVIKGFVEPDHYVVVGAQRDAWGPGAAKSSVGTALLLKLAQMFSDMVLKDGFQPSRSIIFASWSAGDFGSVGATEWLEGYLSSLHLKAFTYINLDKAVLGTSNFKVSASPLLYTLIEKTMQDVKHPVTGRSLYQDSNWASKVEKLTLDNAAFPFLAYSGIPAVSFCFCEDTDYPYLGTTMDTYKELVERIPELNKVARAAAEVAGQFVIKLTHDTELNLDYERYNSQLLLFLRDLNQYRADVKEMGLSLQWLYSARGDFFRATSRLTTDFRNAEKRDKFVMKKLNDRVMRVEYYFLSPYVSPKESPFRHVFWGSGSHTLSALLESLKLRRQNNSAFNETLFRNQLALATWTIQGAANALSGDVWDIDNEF
readout-name: pKd
Scale for pKd: -log10 of concentration given in mol/L; no unit attached.

Prompt: // pKd lookup, key: ACPPDSWQGCISYCA (Cys Ci, Cii, Ciii on TATB scaffold) [BCY13989]
Response: 5.46
